Target: CA IX (Homo sapiens, UniProt Q16790)
Experiment: biochemical
Settings: experimental value used for the QSPR model, library compounds (IDs A…, B…); equals log10 of Ki in nM; read-out: pKi (exp.) (converted)
readout type: log10(Ki) (log10 of the value in nM)
In our notation, the value equals log10 of Ki in nM.

Below, 5 compounds whose answers are already recorded.
| smiles data | reported result |
| --- | --- |
| NS(=O)(=O)c1ccc(NC(=S)Nc2ccc(C3c4ccc(O)cc4Oc4cc(O)ccc43)c(C(=O)O)c2)c(F)c1 | 1.48 |
| CN(C)C1=CCN(c2ccncc2S(N)(=O)=O)C=C1 | 0.95 |
| COC(=O)[C@H]1O[C@H](SNCc2ccc(S(N)(=O)=O)cc2)[C@@H](OC(C)=O)[C@H](OC(C)=O)[C@H]1OC(C)=O | 2.01 |
| O=C(Cc1ccccc1Br)Oc1ccc2c(c1)OS(=O)(=O)C=C2 | 4.00 |
| NS(=O)(=O)c1ccc(-n2cc(/C=N/Nc3nc(-c4cc5ccccc5oc4=O)cs3)c(-c3ccccc3)n2)cc1 | 1.30 |

Assign log10(Ki) to the following record: `Cc1ccc2c(c1)/C(=N/c1ccc(NC(=O)Nc3ccc(S(N)(=O)=O)cc3)cc1)C(=O)N2`
1.23

Assign log10(Ki) to the following record: `NS(=O)(=O)Nc1ccc(NC(=O)Nc2ccc(Cl)cc2)cc1`
0.48

Assign log10(Ki) to the following record: `NS(=O)(=O)c1ccc(-n2nnc(CS[C@H]3O[C@H](CO)[C@@H](O)[C@@H](O)[C@H]3O)c2I)cc1`
0.81

* * *

Overview of reported log10 of Ki in nM across a group of compounds:
Target: CA IX (Homo sapiens)
Assay: biochemical
Conditions: library compounds with IDs A… and B…; from observed Ki (nM)
The answer should be a number; do not append a unit.

Below, 5 compounds whose answers are already recorded.
| compound | readout type | reported result |
| --- | --- | --- |
| CCCN(CCC)S(=O)(=O)c1ccc(C(=O)NCC)cc1 [A1724] | log10 of Ki in nM | 2.179 |
| O=S1(=O)C=Cc2cc(-n3cc(-c4cccc(F)c4)nn3)ccc2O1 [A0598] | log10 of Ki in nM | 0.954 |
| NS(=O)(=O)c1ccc(-n2cc(-c3ccc(Br)cc3)c3c2ncn2nnnc32)cc1 [B0028] | log10 of Ki in nM | 0.447 |
| CC(C)(C)OC(=O)N(CCCCN(CCCNC(=O)C(F)(F)F)C(=O)OC(C)(C)C)CCCNC(=O)C(F)(F)F [A2554] | log10 of Ki in nM | 5.093 |
| NS(=O)(=O)c1ccc(/N=c2\scc(-c3ccc(Br)cc3)n2C2CCCCC2)cc1 [A1905] | log10 of Ki in nM | 2.442 |

Assign log10 of Ki in nM to the following record: NS(=O)(=O)c1ccc2nc(-n3cc(/C=N/O)c(-c4ccc([N+](=O)[O-])cc4)n3)sc2c1 [A1655]
2.076

Assign log10 of Ki in nM to the following record: Cc1cc(=O)oc2cc(-n3cc(CSc4ccccc4)nn3)ccc12 [A1053]
1.471

Assign log10 of Ki in nM to the following record: Cc1c(C(=O)N2CCN(C)CC2)cc(-c2ccc3ccccc3c2)n1-c1ccc(S(N)(=O)=O)cc1 [A1687]
2.124

Assign log10 of Ki in nM to the following record: NS(=O)(=O)c1ccc(CNC(=O)Cc2ccccc2)cc1 [A1701]
2.134

Assign log10 of Ki in nM to the following record: NC(=S)NNC(=O)c1ccncc1 [A2157]
2.988

Assign log10 of Ki in nM to the following record: NS(=O)(=O)OC1CCN(S(=O)(=O)[C@@H]2O[C@H](CO)[C@@H](O)[C@H](O)[C@H]2O)CC1 [A0701]
1.041
